Target: Adrenergic receptor alpha-1 (Rattus norvegicus, UniProt P15823+P23944+P43140)
Sequence (P15823 whole entry): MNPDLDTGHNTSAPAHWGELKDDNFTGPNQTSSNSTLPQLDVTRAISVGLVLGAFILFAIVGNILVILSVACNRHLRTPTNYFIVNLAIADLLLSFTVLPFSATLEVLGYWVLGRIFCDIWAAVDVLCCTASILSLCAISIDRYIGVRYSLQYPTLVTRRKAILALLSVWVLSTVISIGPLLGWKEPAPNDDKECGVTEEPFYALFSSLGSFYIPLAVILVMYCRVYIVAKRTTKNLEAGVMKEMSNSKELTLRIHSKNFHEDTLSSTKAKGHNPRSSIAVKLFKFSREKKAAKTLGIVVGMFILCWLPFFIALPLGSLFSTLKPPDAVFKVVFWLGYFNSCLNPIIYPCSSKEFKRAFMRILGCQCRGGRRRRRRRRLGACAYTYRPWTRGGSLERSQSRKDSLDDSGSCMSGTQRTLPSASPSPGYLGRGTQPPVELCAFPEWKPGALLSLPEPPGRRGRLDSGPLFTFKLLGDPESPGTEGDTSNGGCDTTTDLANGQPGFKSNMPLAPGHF
Sequence (P23944 whole entry): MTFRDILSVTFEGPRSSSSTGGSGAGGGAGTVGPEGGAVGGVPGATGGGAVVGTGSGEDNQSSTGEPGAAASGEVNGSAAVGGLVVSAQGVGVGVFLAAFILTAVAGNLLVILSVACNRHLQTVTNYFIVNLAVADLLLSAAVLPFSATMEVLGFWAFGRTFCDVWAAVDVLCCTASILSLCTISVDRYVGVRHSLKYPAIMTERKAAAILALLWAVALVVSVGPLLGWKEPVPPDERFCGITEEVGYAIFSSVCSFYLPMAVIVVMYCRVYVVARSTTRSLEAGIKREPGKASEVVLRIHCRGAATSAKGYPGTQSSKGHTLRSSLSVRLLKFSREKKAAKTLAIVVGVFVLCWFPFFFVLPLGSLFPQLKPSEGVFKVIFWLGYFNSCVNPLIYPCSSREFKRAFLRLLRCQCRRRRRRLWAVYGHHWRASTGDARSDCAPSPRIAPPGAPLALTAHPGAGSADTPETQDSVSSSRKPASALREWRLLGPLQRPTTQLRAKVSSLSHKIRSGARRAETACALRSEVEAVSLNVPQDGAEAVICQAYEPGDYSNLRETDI
Sequence (P43140 whole entry): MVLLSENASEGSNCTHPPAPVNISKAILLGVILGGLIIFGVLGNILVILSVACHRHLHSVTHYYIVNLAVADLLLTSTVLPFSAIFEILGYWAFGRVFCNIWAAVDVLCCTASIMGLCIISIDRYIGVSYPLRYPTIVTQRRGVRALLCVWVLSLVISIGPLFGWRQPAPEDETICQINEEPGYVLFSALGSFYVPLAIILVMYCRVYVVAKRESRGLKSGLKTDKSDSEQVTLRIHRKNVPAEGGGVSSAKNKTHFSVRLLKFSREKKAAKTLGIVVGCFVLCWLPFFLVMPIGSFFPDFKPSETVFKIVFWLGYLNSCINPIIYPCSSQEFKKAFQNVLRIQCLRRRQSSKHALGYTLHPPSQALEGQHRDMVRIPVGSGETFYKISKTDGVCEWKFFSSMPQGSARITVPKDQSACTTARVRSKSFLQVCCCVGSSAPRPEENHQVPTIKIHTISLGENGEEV
Assay: Binding affinity against Alpha-1 adrenergic receptor in rat cortex using [3H]prazosin
Type: tissue-based, Brain
Measure Name: Ki (nM)

Here is how some compounds turned out for Ki.
COc1ccccc1N1CCN(CCCCc2ccc3c(c2)sc(=O)n3CCN2CCC(=C(c3ccc(F)cc3)c3ccc(F)cc3)CC2)CC1 :: 5
COc1ccccc1N1CCN(CCc2ccc3c(c2)sc(=O)n3CCN2CCC(C(=O)c3ccc(F)cc3)CC2)CC1 :: 1
COc1ccccc1N1CCN(CCCCc2ccc3c(c2)oc(=O)n3CCN2CCC(=C(c3ccc(F)cc3)c3ccc(F)cc3)CC2)CC1 :: 5

(P) COc1ccccc1N1CCN(CCCCc2ccc3c(c2)OCC(=O)N3CCN2CCC(=C(c3ccc(F)cc3)c3ccc(F)cc3)CC2)CC1
(Q) O=C(c1ccc(F)cc1)C1CCN(CCn2c(=O)sc3cc(CCCCN4CCN(c5cccc(C(F)(F)F)c5)CC4)ccc32)CC1
(R) COc1ccccc1N1CCN(CCCCc2ccc3c(c2)sc(=O)n3CCN2CCC(C(=O)c3ccc(F)cc3)CC2)CC1
(S) O=C(c1ccc(F)cc1)C1CCN(CCn2c(=O)sc3cc(CCCCN4CCOCC4)ccc32)CC1
(T) COc1ccccc1N1CCN(CCCCc2ccc3c(c2)OCC(=O)N3CCN2CCC(C(=O)c3ccc(F)cc3)CC2)CC1
Give the ascending ranking of the items by reported Ki. Please list each label once, in the requested order.
T, R, P, S, Q
(T: 2 nM, R: 5 nM, P: 13 nM, S: 40 nM, Q: 1000 nM)
